assay: Solubility at pH 6.8; format: physicochemical; settings: pH 6.8, aqueous buffer, thermodynamic from solid; read-out: solubility

- compound: "CCOCc1ncc(-c2ccc3ncc4c(c3c2)n(-c2cn(C)nc2Cl)c(=O)n4C)cc1OC [Example 196.1]"
  readingQualifier: "="
  solubility / µg/mL: 44
- compound: "CCc1ncc(-c2ccc3ncc4c(c3c2)n(-c2cn(C)nc2C)c(=O)n4C)cc1OC(C)C [Example 186]"
  readingQualifier: "="
  solubility / µg/mL: 8
- compound: "Cc1nn(C(C)C)cc1-n1c(=O)n(C)c2cnc3ccc(-c4cncc(C(C)(C)O)c4)cc3c21 [Example 215.1]"
  readingQualifier: ">"
  solubility / µg/mL: 457
- compound: "COCCn1c(=O)n(C)c2ncc(-c3ccc4ncc5c(c4c3)n(-c3cn(C)nc3C)c(=O)n5C)cc21 [Example 69]"
  readingQualifier: "="
  solubility / µg/mL: 3
- compound: "CCOc1cncc(-c2ccc3ncc4c(c3c2)n(-c2c(C)nn(C)c2C)c(=O)n4C)c1 [Example 56.3]"
  readingQualifier: "="
  solubility / µg/mL: 300
- compound: "COCCn1nc(C)c(-n2c(=O)n(C)c3cnc4ccc(-c5ccc(-n6cccn6)cc5)cc4c32)c1C [Example 51.5]"
  readingQualifier: "="
  solubility / µg/mL: 14
- compound: "Cc1nn(C)cc1-n1c(=O)n(C)c2cnc3ccc(-c4ccc(-n5cccn5)cc4)cc3c21 [Example 51.1]"
  readingQualifier: "="
  solubility / µg/mL: 5

---

target: PI3K beta (Homo sapiens); construct: for the full-length p110-b subunit are generated and fused by overlapping PCR; p85(iSH2) fusion partner (see partner chain) (N); His tag (C); Tn5 (Trichoplusia ni) or TiniPro insect cells; experiment: PI3K beta kinase assay (Kinase-Glo luminescence)
Sequence (P42338 with tags, fused parts or gaps limits assumed): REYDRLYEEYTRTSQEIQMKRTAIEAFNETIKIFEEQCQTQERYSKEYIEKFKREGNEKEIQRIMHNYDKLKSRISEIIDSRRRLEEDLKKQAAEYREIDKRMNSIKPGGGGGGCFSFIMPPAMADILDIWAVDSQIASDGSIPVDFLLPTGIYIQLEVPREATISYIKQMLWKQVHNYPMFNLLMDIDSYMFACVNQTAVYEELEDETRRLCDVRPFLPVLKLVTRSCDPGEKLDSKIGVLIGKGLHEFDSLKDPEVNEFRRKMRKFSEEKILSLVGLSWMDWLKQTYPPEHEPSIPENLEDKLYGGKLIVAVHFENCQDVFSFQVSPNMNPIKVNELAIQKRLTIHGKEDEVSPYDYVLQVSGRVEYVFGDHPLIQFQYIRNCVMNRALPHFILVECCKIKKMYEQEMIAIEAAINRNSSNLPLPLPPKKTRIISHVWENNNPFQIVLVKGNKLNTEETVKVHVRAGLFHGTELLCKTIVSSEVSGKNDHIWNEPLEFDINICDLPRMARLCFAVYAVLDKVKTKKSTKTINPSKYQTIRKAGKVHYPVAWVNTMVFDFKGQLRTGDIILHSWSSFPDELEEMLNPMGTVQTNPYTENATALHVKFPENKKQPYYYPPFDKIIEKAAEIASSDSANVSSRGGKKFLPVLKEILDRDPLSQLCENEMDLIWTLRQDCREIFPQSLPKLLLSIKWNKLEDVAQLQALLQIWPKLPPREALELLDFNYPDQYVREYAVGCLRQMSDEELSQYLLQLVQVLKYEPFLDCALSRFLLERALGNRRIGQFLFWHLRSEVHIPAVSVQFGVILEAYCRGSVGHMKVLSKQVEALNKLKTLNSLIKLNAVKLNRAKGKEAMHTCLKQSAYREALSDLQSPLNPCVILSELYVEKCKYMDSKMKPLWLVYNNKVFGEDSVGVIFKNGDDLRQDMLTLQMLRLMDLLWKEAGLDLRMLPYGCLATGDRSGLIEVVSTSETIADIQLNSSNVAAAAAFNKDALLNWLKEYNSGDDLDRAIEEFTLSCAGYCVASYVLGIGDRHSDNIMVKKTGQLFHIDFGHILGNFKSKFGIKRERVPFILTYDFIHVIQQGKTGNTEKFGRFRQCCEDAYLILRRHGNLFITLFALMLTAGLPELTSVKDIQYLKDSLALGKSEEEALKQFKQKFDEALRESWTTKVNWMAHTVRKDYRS
pIC50: −log10 of the molar value.

- compound: "COc1ccc(-c2ccc3ncc4c(c3c2)n(-c2cn(C)nc2C)c(=S)n4C)cc1OC"
  pIC50: 7.77
- compound: "CCn1cc(-n2c(=O)n(C)c3cnc4ccc(-c5ccc(NC)nc5)cc4c32)c(C)n1"
  pIC50: 6.89
- compound: "CCn1cc(-n2c(=O)n(C)c3cnc4ccc(-c5cnc(F)c(NC)c5)cc4c32)c(C)n1"
  pIC50: 7.77
- compound: "COCCOc1cncc(-c2ccc3ncc4c(c3c2)n(-c2cn(C)nc2Cl)c(=O)n4C)c1"
  pIC50: 7.72
- compound: "CNc1ncc(-c2ccc3ncc4c(c3c2)n(-c2cn(C)nc2Cl)c(=O)n4C)cc1C"
  pIC50: 7.70
- compound: "CCNc1cc(-c2ccc3ncc4c(c3c2)n(-c2cn(C)nc2C)c(=O)n4C)cnc1C"
  pIC50: 7.68
- compound: "COc1ncc(-c2ccc3ncc4c(c3c2)n(-c2cn(C)nc2C)c(=O)n4C)cc1N(C)C(C)=O"
  pIC50: 7.08
- compound: "Cn1nccc1-n1c(=O)n(C)c2cnc3ccc(-c4ccc(NCCO)nc4)cc3c21"
  pIC50: 6.02
- compound: "Cc1nn(C)cc1-n1c(=O)n(C)c2cnc3ccc(-c4cnc(N)c(C(F)(F)F)c4)cc3c21"
  pIC50: 7.72
- compound: "CNC(=O)c1ccc(-c2ccc3ncc4c(c3c2)n(-c2cn(C)nc2Cl)c(=O)n4C)cc1"
  pIC50: 7.25
- compound: "Cc1nn(C)c(C)c1-n1c(=O)n(C)c2cnc3ccc(-c4cnc(N)c(F)c4)cc3c21"
  pIC50: 6.70
- compound: "CCNc1ncc(-c2ccc3ncc4c(c3c2)n(-c2cn(C)nc2C)c(=O)n4C)cc1COCC"
  pIC50: 7.08
- compound: "CCOc1ccc(-c2ccc3ncc4c(c3c2)n(-c2cnn(C)c2C)c(=O)n4C)cn1"
  pIC50: 6.32
- compound: "CCn1cc(-n2c(=O)n(C)c3cnc4ccc(-c5cncc(C(C)(C)O)c5)cc4c32)c(C)n1"
  pIC50: 7.92
- compound: "CNc1ccc(-c2ccc3ncc4c(c3c2)n(-c2cn(C(C)C)nc2C)c(=O)n4C)cn1"
  pIC50: 6.52
- compound: "Cc1nn(C)cc1-n1c(=O)n(C)c2cnc3ccc(-c4cncc(C(C)O)c4)cc3c21 (racemic)"
  pIC50: 7.89
- compound: "Cc1nn(C)c(C)c1-n1c(=O)n(C)c2cnc3ccc(-c4cccc(S(=O)(=O)N(C)C)c4)cc3c21"
  pIC50: 6.07
- compound: "Cc1nn(C)c(C)c1-n1c(=O)n(C)c2cnc3ccc(-c4cnc(N)c(CO)c4)cc3c21"
  pIC50: 6.78
- compound: "COc1cc(-c2ccc3ncc4c(c3c2)n(-c2cn(C)nc2C)c(=O)n4C)cnc1C"
  pIC50: 8.00
- compound: "CCNc1cc(-c2ccc3ncc4c(c3c2)n(-c2cn(C)nc2Cl)c(=O)n4C)cnc1C"
  pIC50: 7.66
- compound: "CNC(=O)c1ccc(-c2ccc3ncc4c(c3c2)n(-c2cn(C)nc2C)c(=O)n4C)cc1"
  pIC50: 6.72
- compound: "COCc1ccc(-c2ccc3ncc4c(c3c2)n(-c2cn(C(C)C)nc2C)c(=O)n4C)cn1"
  pIC50: 6.79
- compound: "CCn1cc(-n2c(=O)n(C)c3cnc4ccc(-c5cncc(NC)c5)cc4c32)c(C)n1"
  pIC50: 7.38
- compound: "CCNC(=O)c1cc(-c2ccc3ncc4c(c3c2)n(-c2cn(C(C)C)nc2C)c(=O)n4C)cnc1N"
  pIC50: 6.54
- compound: "Cc1nn(C)cc1-n1c(=O)n(C)c2cnc3ccc(-c4cncc(CN)c4)cc3c21"
  pIC50: 6.46
- compound: "Cc1nn(C)cc1-n1c(=O)n(C)c2cnc3ccc(-c4cncc(C(C)(C)O)c4)cc3c21"
  pIC50: 8.00
- compound: "Cn1cc(-n2c(=O)n(C)c3cnc4ccc(-c5cncc(C(C)(C)C#N)c5)cc4c32)c(Cl)n1"
  pIC50: 8.15
- compound: "Cc1noc(C)c1-n1c(=O)n(C)c2cnc3ccc(-c4cnc(N)c(Cl)c4)cc3c21"
  pIC50: 7.02
- compound: "C=CCn1c(=O)n(-c2cn(C)nc2C)c2c3cc(-c4cncc(N)c4)ccc3ncc21"
  pIC50: 7.09
- compound: "Cc1nn(C)cc1-n1c(=O)n(C)c2cnc3ccc(-c4ccc(N5CCNCC5)nc4)cc3c21"
  pIC50: 6.10
- compound: "Cc1nn(C)cc1-n1c(=O)n(C)c2cnc3ccc(-c4cnc5c(c4)nnn5C)cc3c21"
  pIC50: 6.95

---

Each entry below carries its measured pIC50, system: UniProtKB P42345.
Sequence (P42345 1360-2549 limits assumed): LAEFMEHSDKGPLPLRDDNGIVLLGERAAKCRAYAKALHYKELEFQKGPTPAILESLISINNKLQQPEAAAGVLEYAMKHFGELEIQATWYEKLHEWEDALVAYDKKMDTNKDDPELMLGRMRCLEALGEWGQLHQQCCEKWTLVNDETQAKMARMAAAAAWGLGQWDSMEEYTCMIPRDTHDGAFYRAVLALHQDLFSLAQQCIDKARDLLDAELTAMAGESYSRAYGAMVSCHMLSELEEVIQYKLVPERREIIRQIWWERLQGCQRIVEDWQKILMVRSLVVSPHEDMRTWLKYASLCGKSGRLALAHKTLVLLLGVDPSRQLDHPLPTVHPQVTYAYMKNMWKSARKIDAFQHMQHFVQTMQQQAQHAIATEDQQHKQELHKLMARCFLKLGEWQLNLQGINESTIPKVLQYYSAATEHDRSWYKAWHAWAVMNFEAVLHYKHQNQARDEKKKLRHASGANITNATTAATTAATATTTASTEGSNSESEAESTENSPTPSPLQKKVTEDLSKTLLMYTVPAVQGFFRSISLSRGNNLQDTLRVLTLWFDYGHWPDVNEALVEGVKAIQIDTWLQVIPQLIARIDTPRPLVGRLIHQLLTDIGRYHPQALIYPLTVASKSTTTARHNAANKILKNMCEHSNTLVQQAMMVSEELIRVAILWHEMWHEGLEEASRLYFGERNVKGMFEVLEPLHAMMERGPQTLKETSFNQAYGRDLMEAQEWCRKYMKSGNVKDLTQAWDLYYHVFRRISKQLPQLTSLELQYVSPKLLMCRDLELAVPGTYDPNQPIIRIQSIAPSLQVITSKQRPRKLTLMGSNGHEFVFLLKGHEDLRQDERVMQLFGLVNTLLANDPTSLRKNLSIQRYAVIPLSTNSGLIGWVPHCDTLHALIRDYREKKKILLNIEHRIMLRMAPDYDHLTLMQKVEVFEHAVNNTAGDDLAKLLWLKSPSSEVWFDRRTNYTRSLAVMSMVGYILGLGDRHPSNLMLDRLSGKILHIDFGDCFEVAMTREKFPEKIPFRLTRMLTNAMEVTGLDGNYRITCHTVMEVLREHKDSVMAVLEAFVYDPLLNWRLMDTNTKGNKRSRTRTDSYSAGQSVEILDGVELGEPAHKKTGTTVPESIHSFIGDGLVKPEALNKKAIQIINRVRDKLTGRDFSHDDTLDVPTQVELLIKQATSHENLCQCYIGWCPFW
pIC50: −log10 of the molar value.

- compound: "Cc1nn(C)cc1-n1c(=O)n(C)c2cnc3ccc(-c4cnc(N)nc4)cc3c21 [Example 81.1]"
  readingQualifier: "="
  pIC50: 8.40
- compound: "COc1ncc(-c2ccc3ncc4c(c3c2)n(-c2cn(C)nc2C)c(=O)n4C)cc1C#N [Example 132]"
  readingQualifier: "="
  pIC50: 6.03
- compound: "Cc1nn(C)cc1-n1c(=O)n(C)c2cnc3ccc(-c4cncc(CNS(C)(=O)=O)c4)cc3c21 [Example 232]"
  readingQualifier: "="
  pIC50: 7.25
- compound: "Cc1ncc(-c2ccc3ncc4c(c3c2)n(-c2cn(C)nc2C)c(=O)n4C)cc1N(C)C [Example 164]"
  readingQualifier: ">"
  pIC50: 8.52
- compound: "Cc1nn(C)cc1-n1c(=O)n(C)c2cnc3ccc(-c4cncc(N)c4)cc3c21 [Example 45.1]"
  readingQualifier: "="
  pIC50: 8.15
- compound: "CNc1ncc(-c2ccc3ncc4c(c3c2)n(-c2cc(C)nn2C)c(=O)n4C)cc1Cl [Example 146.5]"
  readingQualifier: "="
  pIC50: 7.32
- compound: "COc1ccc(-c2ccc3ncc4[nH]c(=O)n(-c5cn(C)nc5C)c4c3n2)cc1OC [Example 249]"
  readingQualifier: "="
  pIC50: 7.52
- compound: "Cc1nn(C)cc1-n1c(=O)n(C)c2cnc3ccc(-c4cccc(S(=O)(=O)N5CCCC5)c4)cc3c21 [Example 44]"
  readingQualifier: "="
  pIC50: 6.25
- compound: "COc1ncc(-c2ccc3ncc4c(c3c2)n(-c2cn(C(C)C)nc2C)c(=O)n4C)c(OC)n1 [Example 234.3]"
  readingQualifier: "="
  pIC50: 7.77
- compound: "Cc1nn(C)cc1-n1c(=O)n(C)c2cnc3ccc(-c4ccc(C(N)=O)nc4)cc3c21 [Example 14]"
  readingQualifier: "="
  pIC50: 8.22
- compound: "Cc1nn(C)cc1-n1c(=O)n(C)c2cnc3ccc(-c4cncnc4)cc3c21 [Example 26]"
  readingQualifier: "="
  pIC50: 6.95
- compound: "COc1ncc(-c2ccc3ncc4c(c3c2)n(-c2cn(C)nc2C)c(=O)n4C)cc1N(C)C(C)=O [Example 62]"
  readingQualifier: "="
  pIC50: 6.19
- compound: "Cc1nn(C)cc1-n1c(=O)n(C)c2cnc3ccc(-c4ccnc(OC(C)C)c4)cc3c21 [Example 92]"
  readingQualifier: "="
  pIC50: 6.42
- compound: "CCn1cc(-n2c(=O)n(C)c3cnc4ccc(-c5cnc(OC)nc5OC)cc4c32)c(C)n1 [Example 234.1]"
  readingQualifier: "="
  pIC50: 7.85
- compound: "CNc1ncc(-c2ccc3ncc4c(c3c2)n(-c2cn(C(C)C)nc2C)c(=O)n4C)cc1COC [Example 248.1]"
  readingQualifier: "="
  pIC50: 6.95
- compound: "Cc1nn(C(C)C)cc1-n1c(=O)n(C)c2cnc3ccc(-c4cncc(N)c4)cc3c21 [Example 45.3]"
  readingQualifier: "="
  pIC50: 8.15
